Data credit: ChEMBL document CHEMBL2321852

test system: Plasma; assay: Drug recovery in 100% human plasma at 5 uM by LC-MS/MS analysis; assay type: ADME, cell-free
endpoint: Drug recovery (%)
Provide only the numeric value, understood in %.

Query block: // Input: Cc1ccc(C(CCC(N)C(=O)O)(c2ccccc2)c2ccccc2)cc1C (racemic) . Output its Drug recovery only.
Result block: 78.9

Query block: // Input: Cc1ccc(C(=O)N(CCCN)[C@@H](c2oc3cc(Cl)ccc3c(=O)c2Cc2ccccc2)C(C)C)cc1 . Output its Drug recovery only.
Result block: 81.5

Query block: // Input: CCc1cc(C(SC[C@H](N)C(=O)O)(c2ccccc2)c2ccccc2)ccc1C . Output its Drug recovery only.
Result block: 70.7

Query block: // Input: Cc1ccc(C(SC[C@H](N)C(=O)O)(c2ccccc2)c2ccccc2)cc1C . Output its Drug recovery only.
Result block: 79.6

Query block: // Input: COc1ccc(C(CCCN)(c2ccccc2)c2ccccc2)cc1 . Output its Drug recovery only.
Result block: 73

Query block: // Input: COc1ccc(C(SC[C@H](N)C(=O)O)(c2ccccc2)c2ccccc2)cc1 . Output its Drug recovery only.
Result block: 80.7

---

experiment: Partition coefficient, log P of the compound by potentiometric method; format: physicochemical; details: octanol/water
Give measured logP for each item. Keep answers brief.

Query block: // Input: CCc1cc(C(SC[C@H](N)C(=O)O)(c2ccccc2)c2ccccc2)ccc1C . Output its logP only.
Result block: 4.13

Query block: // Input: Cc1ccc(C(SC[C@H](N)C(=O)O)(c2ccccc2)c2ccccc2)cc1C . Output its logP only.
Result block: 2.94

Query block: // Input: Cc1ccc(C(CCC(N)C(=O)O)(c2ccccc2)c2ccccc2)cc1C (racemic) . Output its logP only.
Result block: 1.96

Query block: // Input: COc1ccc(C(SC[C@H](N)C(=O)O)(c2ccccc2)c2ccccc2)cc1 . Output its logP only.
Result block: 1.77

Query block: // Input: COc1ccc(C(CCCN)(c2ccccc2)c2ccccc2)cc1 . Output its logP only.
Result block: 3.96

Query block: // Input: Cc1ccc(C(=O)N(CCCN)[C@@H](c2oc3cc(Cl)ccc3c(=O)c2Cc2ccccc2)C(C)C)cc1 . Output its logP only.
Result block: 3.08

---

Give measured microsomal CLint at 3 µM for each item. Keep answers brief.
assay: Intrinsic clearance in human liver microsomes assessed per mg of protein at 3 uM after 0.5 to 45 mins by LC-MS/MS analysis; assay type: ADME, Microsome; conditions: read-out: CLH
Provide only the numeric value, understood in µL/min/mg.

Query block: // Input: COc1ccc(C(SC[C@H](N)C(=O)O)(c2ccccc2)c2ccccc2)cc1 . Output its microsomal CLint at 3 µM only.
Result block: 8.6

Query block: // Input: Cc1ccc(C(=O)N(CCCN)[C@@H](c2oc3cc(Cl)ccc3c(=O)c2Cc2ccccc2)C(C)C)cc1 [SB-743921] . Output its microsomal CLint at 3 µM only.
Result block: 4.5

---

target: Cytochrome P450 2C9 (Homo sapiens); assay: Inhibition of CYP2C9 (unknown origin) by LC-MS/MS analysis; type: ADME
Sequence (P11712 whole entry): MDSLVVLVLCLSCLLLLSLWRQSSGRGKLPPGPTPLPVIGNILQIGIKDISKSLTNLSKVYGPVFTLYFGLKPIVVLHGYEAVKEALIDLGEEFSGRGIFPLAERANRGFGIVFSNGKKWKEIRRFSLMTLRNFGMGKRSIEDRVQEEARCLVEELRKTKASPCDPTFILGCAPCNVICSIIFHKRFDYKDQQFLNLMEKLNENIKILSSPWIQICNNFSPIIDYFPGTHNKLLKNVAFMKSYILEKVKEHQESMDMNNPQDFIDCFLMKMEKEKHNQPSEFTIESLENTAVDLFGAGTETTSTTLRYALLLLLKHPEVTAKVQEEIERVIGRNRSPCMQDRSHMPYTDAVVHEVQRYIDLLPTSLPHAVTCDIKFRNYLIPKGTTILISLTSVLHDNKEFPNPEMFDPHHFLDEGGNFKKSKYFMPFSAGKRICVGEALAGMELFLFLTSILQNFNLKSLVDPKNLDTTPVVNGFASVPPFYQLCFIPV
endpoint: INH

Query block: // Input: Cc1ccc(C(=O)N(CCCN)[C@@H](c2oc3cc(Cl)ccc3c(=O)c2Cc2ccccc2)C(C)C)cc1 . Output its INH only.
Result block: > 25 µM

Query block: // Input: CCc1cc(C(SC[C@H](N)C(=O)O)(c2ccccc2)c2ccccc2)ccc1C . Output its INH only.
Result block: 14 µM

Query block: // Input: Cc1ccc(C(CCC(N)C(=O)O)(c2ccccc2)c2ccccc2)cc1C (racemic) . Output its INH only.
Result block: > 25 µM

Query block: // Input: Cc1ccc(C(SC[C@H](N)C(=O)O)(c2ccccc2)c2ccccc2)cc1C . Output its INH only.
Result block: > 25 µM

Query block: // Input: COc1ccc(C(CCCN)(c2ccccc2)c2ccccc2)cc1 . Output its INH only.
Result block: 1.9 µM

Query block: // Input: COc1ccc(C(SC[C@H](N)C(=O)O)(c2ccccc2)c2ccccc2)cc1 . Output its INH only.
Result block: > 25 µM
